The measured values listed here are drawn from the RNAGym collection of RNA variant scans (doi:10.7554/elife.90254).

B1: LINE1-full (parent)
chain: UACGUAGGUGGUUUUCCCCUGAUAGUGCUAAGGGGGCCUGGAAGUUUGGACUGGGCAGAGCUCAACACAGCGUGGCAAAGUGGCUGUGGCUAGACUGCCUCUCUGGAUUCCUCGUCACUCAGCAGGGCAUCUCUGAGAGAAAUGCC

variants of: B1; assay: self-cleavage, relative activity (ratio to wild type); higher = more cleavage; in vitro, sequencing; the parent is a self-cleaving ribozyme
Please enter criterion met where self-cleavage is greater than or equal to 1, and criterion not met where it is lower.

Mutation spec	Assigned label
U45C U109C	criterion not met
A64C A65U	criterion not met
U12C U14C	criterion met
U29C A78U	criterion met
A22U U143G	criterion met
G82A A129U	criterion met
G41U A121G	criterion met
U100G G137A	criterion not met
U15C A129U	criterion met
U47A U52C	criterion met
A50U A77U	criterion not met
U100C G144A	criterion met
A69C A78G	criterion not met
C133A A140C	criterion met
A65G C90A	criterion not met
U45C G74A	criterion met
C76U	criterion met
G10U A50U	criterion met
U91C A136G	criterion not met
A78C U108C	criterion met
A6G A69U	criterion not met
C120U U130A	criterion met
U45G A92U	criterion not met
U9C C56U	criterion not met
C19A C128U	criterion met
U12C G49A	criterion met
U13C U87A	criterion not met
U13G A30G	criterion met
A64G U100A	criterion not met
U46G G60C	criterion not met
C90U U134G	criterion not met
U39C C63A	criterion not met
G75A G126A	criterion not met
U81A C118U	criterion met
C28G U100A	criterion not met
A92G A141G	criterion not met
U115C U130C	criterion met
U47C C61U	criterion not met
U15C C17A	criterion met
U12C	criterion met
U13C A141U	criterion met
A94C A117G	criterion not met
C56U A92G	criterion not met
G89A U143A	criterion not met
C110U A117G	criterion met
U85C G89A	criterion not met
U73C A136G	criterion met
U15A U109C	criterion not met
U13A A136G	criterion met
U20A C110A	criterion met
U104G U130A	criterion not met
A79G U100A	criterion not met
A79G A129U	criterion met
C123U U132C	criterion met
U73C G74U	criterion met
C76A G106U	criterion met
A43G A121G	criterion met
A65G A136G	criterion not met
G60A	criterion not met
U20C U91C	criterion not met
A30U G72A	criterion met
U15C C131A	criterion met
A94C U109C	criterion not met
U26C G125U	criterion not met
U87G A140G	criterion not met
U23C G27A	criterion met
G10A U143C	criterion met
A22C U73C	criterion met
A78G U104C	criterion met
U52C G58U	criterion not met
U14A U62C	criterion not met
U1C A67G	criterion not met
C3U A43G	criterion not met
U96A U109C	criterion not met
A24C A67G	criterion not met
U13G A107G	criterion met
A31U U46C	criterion met
A57U U102C	criterion not met
C61U U81A	criterion not met
G7C U91C	criterion not met
A65G A79U	criterion not met
C19U A78U	criterion met
G32C G60U	criterion not met
U9C A69U	criterion not met
C16A A142G	criterion not met
A31U C145A	criterion met
U46C U85A	criterion not met
U29C A79U	criterion met
A57G G114A	criterion not met
C56U A107G	criterion not met
